Taken from ChEMBL document CHEMBL3576816.

For each entry below, report its Activity value.
assay: Cytotoxicity against BHK cells infected with West Nile virus replicon assessed as cell viability at 10 uM after 3 days by CellTiter 96 aqueous one solution cell proliferation assay relative to control; type: cell-based, Mesocricetus auratus; conditions: hamster, bhk, 72 h, 10 µM
Reply numerically in %, unit not repeated.

[in] Any idea what its Activity is? The compound is `Cc1cn([C@H]2C[C@H](n3nncc3-c3ccc(Oc4ccccc4)cc3)[C@@H](CO)O2)c(=O)[nH]c1=O`
[out] 99

[in] Any idea what its Activity is? The compound is `Cc1cn([C@H]2C[C@H](n3cc(-c4ccc(-c5ccccc5)cc4)nn3)[C@@H](CO)O2)c(=O)[nH]c1=O`
[out] 100

[in] Any idea what its Activity is? The compound is `Cc1cn([C@H]2C[C@H](n3nncc3-c3cccc4ccccc34)[C@@H](CO[Si](C)(C)C(C)(C)C)O2)c(=O)[nH]c1=O`
[out] 8

[in] Any idea what its Activity is? The compound is `CCOCOC[C@H]1O[C@@H](n2cc(C)c(=O)[nH]c2=O)C[C@@H]1n1nncc1-c1ccc2cc(OC)ccc2c1`
[out] 89
